Target: IL-23 (human, p19/p40 heterodimer) (Homo sapiens) (UniProt Q9NPF7+P29460)
Sequence (Q9NPF7 20-189, chain 1 of 2): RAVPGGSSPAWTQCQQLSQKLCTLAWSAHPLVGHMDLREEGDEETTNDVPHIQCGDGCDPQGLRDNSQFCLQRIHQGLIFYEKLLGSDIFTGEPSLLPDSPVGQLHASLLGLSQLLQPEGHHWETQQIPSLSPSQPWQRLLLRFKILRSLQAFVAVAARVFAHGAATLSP
Sequence (P29460 23-328, chain 2 of 2): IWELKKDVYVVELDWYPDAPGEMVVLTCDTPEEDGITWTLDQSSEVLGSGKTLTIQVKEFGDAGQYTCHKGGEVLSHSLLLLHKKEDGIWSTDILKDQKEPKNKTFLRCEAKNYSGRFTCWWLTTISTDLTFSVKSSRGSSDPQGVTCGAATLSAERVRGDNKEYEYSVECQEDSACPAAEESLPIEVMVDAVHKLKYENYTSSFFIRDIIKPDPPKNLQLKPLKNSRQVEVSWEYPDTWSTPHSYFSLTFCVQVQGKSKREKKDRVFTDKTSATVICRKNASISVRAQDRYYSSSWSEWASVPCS
Assay: filter
Conditions: deoxy A,G; 2'-OMe C,U; dI at G17; 3'-idT [17]; DPBS Ca Mg
measuredQuantity: Kd (nM)
// return numeric value only (unit: nM, not printed)

Inquiry: // Input: ACAGGCAAGUAAUUGGGGAGUGCGGGCGGGGUGU [ARC1597] . Output its Kd only.
Reply text: 11.2

---

Molecular target: IL-23 (human, p19/p40 heterodimer) (Homo sapiens) (UniProt Q9NPF7+P29460)
Test: filter
Details: deoxy A,G; 2'-OMe C,U; dI at G4,G5; 3'-idT [dI at 4,5 (parent G); 2'-OMe C,U at 2,6,10,13,14,21,23,27,32,34; deoxy A,G elsewhere; 3'-inverted dT at 35]; DPBS Ca Mg
measuredQuantity: pKd
Scale for pKd: -log10 of concentration given in mol/L; no unit attached.

Inquiry: Output reported pKd of the sequence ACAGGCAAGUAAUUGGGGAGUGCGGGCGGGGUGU [ARC1593] on IL-23 (human, p19/p40 heterodimer) (Homo sapiens) (UniProt Q9NPF7+P29460).
Reply text: 7.86
